The values you see were collected from the supplement of paper PMC9170038.

system: MS2 coat protein; test: apparent KD of MS2 coat protein; designed switch direction (-1 OFF switch, 1 ON switch): 1; higher = weaker reporter binding; conditions: Eterna round: R95; input ligand: FMN 200 uM
Record rule met whenever apparent KD of MS2 coat protein is at 40 nM or higher; record rule not met when lower.

These recorded examples may help you get a feel for the data.
[
  {
    "RESIDUES": "AGUCCAGCCUGAGCUGGACAAAAGCAUGUACAUGAGGAUCACCCAUGUCAUGUACAAGCUUUUUGCUCGUCUUAAAG [Mat - hsa-mir-208a - Mod of JL - D23] (puzzle: Sensor for hsa-mir-208a)",
    "CLASSIFICATION": "rule met"
  },
  {
    "RESIDUES": "AGUCCAGCAUGAGCUGGACAAAAGCAUGUACAUGAGGAUCACCCAUGUUCAUGUACAAGCUUUUUGCAAGUCAAAAU [Mat - hsa-mir-208a - Mod of JL - 81] (puzzle: Sensor for hsa-mir-208a)",
    "CLASSIFICATION": "rule met"
  },
  {
    "RESIDUES": "CGGGUACAUGAGGAUCACCCAUGUUGGAGUAAUGCAGGAUAUGUGAGACGAGAAGAUAAAACAGAAGGGCAAGGAG [JR_SS!_Sub009] (puzzle: Same State 1)",
    "CLASSIFICATION": "rule not met"
  },
  {
    "RESIDUES": "AUAAAACAUGAGGAUCACCCAUGUCAACAAAGUCGAGGAUAUGGGCAAAUAAUAUAAGAACCAGAAGGCGAAUAAU [salish99_ss1_r3_022] (puzzle: Same State 1)",
    "CLASSIFICATION": "rule not met"
  }
]

Exam item: Say whether GACAAUCUAUCUGAGGAUAUCAUGAUAAUAACAUGAGGAUCACCCAUGUGCAGGAAAACUGCAUAUGAGAAGGCAGAUAGAUUGA [Mat - Same State 2 - Mod - D14] (puzzle: Same State 2) shows apparent KD of MS2 coat protein of 40 nM or more.
Marked response: rule not met

---

Provide the recorded apparent KD of MS2 coat protein for the entries that follow.
system: MS2 coat protein; assay: apparent KD of MS2 coat protein, switch OFF state (with FMN for OFF switches, without FMN for ON switches); designed switch direction (-1 OFF switch, 1 ON switch): 1; higher = weaker reporter binding; settings: FMN input: 0 or 200 uM; Eterna round: R93 (includes R88 designs)
Numbers only, in nM.

For orientation, consider the following solved cases.
[
  {
    "RESIDUES": "GUGUAUAGAAUCGAGGAUAUCCUGUAAUGCACAUGAGGAUCACCCAUGUAAGAGCGAGAAUAAUGGGAGAAGGCGAGUUAUCGGU [JR_SS002_Sub1710]",
    "UNIT": "nM",
    "apparent KD of MS2 coat protein": 46.1
  },
  {
    "RESIDUES": "AACAAUCUAUCUGAGGAUAUCAUGUAAAAAACAUGAGGAUCACCCAUGUCUAGGAAAACUAGAUAUGAGAAGGCAGAUAGAUUGA [SS1 - 596]",
    "UNIT": "nM",
    "apparent KD of MS2 coat protein": 86.1
  }
]

Now, please, on to the next sequence.
apparent KD of MS2 coat protein in this record for AAAGGGAUUACGGAGGAUAUGGAAAAAAAAACAUGAGGAUCACCCAUGUCAAAAAAAAAAAAGGACCAGAAGGCCGUAAUCUCAAA [hsl_samestate2] : 22.6

---

tested on: MS2 coat protein; test: apparent KD of MS2 coat protein; designed switch direction (-1 OFF switch, 1 ON switch): -1; higher = weaker reporter binding; settings: input ligand: FMN 200 uM
QUANTITY_MEASURED: apparent KD of MS2 coat protein

For orientation, consider the following solved cases.
[
  {
    "RESIDUES": "AUUUGCACGCUGCGGUCCUACAUGAGGAUCACCCAUGUGGUCUGGUGGCGUGGGUCGCCGGACUUGGCUCGUCUUGU [salish99_S_TOV1_R5_033] (Eterna round: R97, puzzle: Sensor, turn-off variant 1)",
    "RECORDED_RESULT": "18.7 nM"
  },
  {
    "RESIDUES": "GGGCCUUUGGUCAGGAUAUCUUAUUCCAGACUAUAGGAGAAGGGACUUGAGGAUCACCCAAGUAAAAUGAAAAC [Dizadi] (Eterna round: R97, puzzle: Brourd's mod of Exclusion 4)",
    "RECORDED_RESULT": "23.3 nM"
  },
  {
    "RESIDUES": "AAAAUAAUAAGUUUACGAACAUUUAGAAAAAGGGAUCCAACAUGAGGAUCACCCAUGUAUUAUCAGCAUAAACCCUA [JR_Sensorv2_tov2_Sub1270] (Eterna round: R96, puzzle: Sensor v2, turn-off variant 2)",
    "RECORDED_RESULT": "341 nM"
  },
  {
    "RESIDUES": "UACACUGCAUGAGGAUCAAACAUGAGGAUCACCCAUGUGUAGCAAGCUUUUUGCUCGUCUUAUAAAUAUGUAGUGUA [Electric Eye 10 - Jieux - Sensor, turn-off variant 1] (Eterna round: R97, puzzle: Sensor, turn-off variant 1)",
    "RECORDED_RESULT": "13.4 nM"
  },
  {
    "RESIDUES": "GUGAAGUAAGGAUAUAGUGGAAAAGAUAAGGUAUGAGAGUUCUAGAAGGUACAUGAGGAUCACCCAUGUUAGGG [JR_Exclu4_Sub085] (Eterna round: R96, puzzle: Exclusion 4)",
    "RECORDED_RESULT": "324 nM"
  },
  {
    "RESIDUES": "UGAGUGCUGCGAGGAUAUACAUGAGGAUCACCCAUGUAAUCGUCUGAGGCAAAGCCUCAGACGAAGUAGAAGGCGCAGUACUCU [Mat - Exclusion NG 2 - Mod of JL - D26] (Eterna round: R96, puzzle: Exclusion NG 2)",
    "RECORDED_RESULT": "15.5 nM"
  }
]

Value sought for every listed sequence: apparent KD of MS2 coat protein.
1. AGUGCUGCAGGAUAUUCUAUUAAUUACAUGAGGAUCACCCAUGUGAAUGGACAAGGGUGUGAAGAAGGGUGGUGCG [Omei Ex5 A17h] (Eterna round: R97, puzzle: Exclusion 5)
2. ACUUAUUGAGGAUAUACAUUAAUUUACAUGAGGAUCACCCAUGUUCUUCAAUGUAUAUAUGUAGAAGGCAGAAGAA [JL-ex5-4.30 Malcolm mod] (Eterna round: R97, puzzle: Exclusion 5)
3. GUAAACGAAGAGGAUAUUUGAUAUCAAAGCUUCAAAGAAGGCUUCACAUGAGGAUCACCCAUGUGAUCUUCAAA [Mat - Exclusion 6 - JL Mod - D18] (Eterna round: R97, puzzle: Exclusion 6)

Marked response:
1. 375 nM
2. 29.3 nM
3. 191 nM

---

Provide the recorded apparent KD of MS2 coat protein for the entries that follow.
system: MS2 coat protein; experiment: apparent KD of MS2 coat protein; designed switch direction (-1 OFF switch, 1 ON switch): -1; higher = weaker reporter binding; settings: Eterna round: R95; input ligand: microRNA oligo, concentration not stated
Don't forget the unit after the value.

Value sought for every listed sequence: apparent KD of MS2 coat protein.
1. AAUUCACAUGAGGAUCACCCAUGUCAGGAUAUGGUUUCACUUUUUUCUUUUCUUGAUUCCAGAAGGGACAGCUA (puzzle: Exclusion 1)
2. CUGAGGUAGCGGUCCUAUGACAUGAGGAUCACCCAUGUACCUUGCUUUGAGCUAUUUGCUCGUCUUAUGAUUCUCGG [Mat - Sensor v3 - turn-off var 1 - JL Mod - D40] (puzzle: Sensor v3, turn-off variant 1)
3. UUUAAUUUUUUUUUUUUACAAGCUUUUUGCUCGUCUUAUACAUGAGGAUCACCCAUGUGGGUGAAAGAUAAAUUAUC [JMF 5] (puzzle: Sensor v3, turn-off variant 2)

Marked response:
1. 0.0626 µM
2. 0.355 µM
3. 0.0192 µM

Value sought for every listed sequence: apparent KD of MS2 coat protein.
1. AAGAGUGCAGGAUAUACGUGAGAAAGGAGGAUGAGAGAAGGACAUGAGGAUCACCCAUGUAGAAGGGCAGAGAG [JR_Exclu2_Sub060] (puzzle: Exclusion 2)
2. GGUGCGUAUGUGAGGAUAUGCUGGUCCUUGGAUCAGCAGAAGGCACAUGAGGAUCACCCAUGUGGUGUCGUUCC [salish99_Bmod_Ex4_020] (puzzle: Brourd's mod of Exclusion 4)
3. GAUUAUGCGAGCUUUAGGGACAUGAGGAUCACCCAUGUUCGUCUUGUUGAUCUAGGUACGCUGACAUACCUAAAUCU [JMF 99] (puzzle: Sensor v3, turn-off variant 1)
4. UUUAAAACAUAGGAUAUCGAAUAAAUCAUUUAACGAGAAGGAUGAACAUGAGGAUCACCCAUGUGGUAUCAUGG [Mat - Exclusion 6 - JL Mod - D20] (puzzle: Exclusion 6)
5. CAUAUGUGAGGAUAUGACAAUGGUAUCUUCGGAUACCAUUGUCAGAAGGCACAUGAGGAUCACCCAUGUGGAUC [Exclusion 4 - Mod Brourd Ex 4-3: 20 v.5] (puzzle: Exclusion 4)
6. AAUGGGUGUGUGAGGAUAUACGAUGGCAGUUGCCAGUAGAAGGUACAUGAGGAUCACCCAUGUGUCCAAAAGUG [Aquin] (puzzle: Brourd's mod of Exclusion 4)
7. UUUUAGAGAGGAUAUAUAUUGUGAAACAUGAGGAUCACCCAUGUAAUAAUAUGGAUGAAAAUAGAAGGCUCAUUUA [Mat - Exclusion 5 - JL mod - D7] (puzzle: Exclusion 5)

Marked response:
1. 0.0364 µM
2. 0.363 µM
3. 0.0256 µM
4. 0.183 µM
5. 0.151 µM
6. 0.0119 µM
7. 0.0627 µM
